Each recorded value in this set is attributed to patent US8969554B2.

Test system: A. retroflexus
Assay Overview: Herbicidal activity by field soil treatment (Test example 2)
Assay type: in vivo
Design: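 index 0 to 10 in 10% steps of herbicidal effect with 10 meaning complete death and 0 below 10%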
Test Conditions: 1000 g effective component per hectare, day 21 after the treatment
Recorded Metric: herbicidal effect index, Amaranthus retroflexus
// return a plain number; no unit text

Request: Indicate its recorded herbicidal effect index, Amaranthus retroflexus; the compound in question is Cn1nc(C(=O)C2=C(O)CCCC2=O)c(=O)n(-c2cccnc2Cl)c1=O [I-276]
Response: 10

Request: Indicate its recorded herbicidal effect index, Amaranthus retroflexus; the compound in question is CCc1ccc(-n2c(=O)c(C(=O)C3=C(O)CCCC3=O)nn(C)c2=O)nc1 [I-462]
Response: 9

Request: Indicate its recorded herbicidal effect index, Amaranthus retroflexus; the compound in question is Cn1nc(C(=O)C2=C(O)CCCC2=O)c(=O)n(-c2ccc(C(F)(F)F)cc2)c1=O [I-65]
Response: 10

* * *

System: Echinochloa crus-galli
Assay Overview: Herbicidal activity by field soil treatment (Test example 2)
Format: in vivo
Design: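 index 0 to 10 in 10% steps of herbicidal effect with 10 meaning complete death and 0 below 10%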
Test Conditions: 1000 g effective component per hectare, day 21 after the treatment
Recorded Metric: herbicidal effect index, Echinochloa crus-galli
// return a plain number; no unit text

Field: example entries. Status: answers known.
* Cc1ccc(C)c(-n2c(=O)c(C(=O)C3=C(O)CCCC3=O)nn(C)c2=O)c1 [I-91] | 9
* Cn1nc(C(=O)C2=C(O)CCCC2=O)c(=O)n(-c2cccc([N+](=O)[O-])c2)c1=O [I-67] | 10

Request: Indicate its recorded herbicidal effect index, Echinochloa crus-galli; the compound in question is Cc1cc(C)cc(-n2c(=O)c(C(=O)C3=C(O)CCCC3=O)nn(C)c2=O)c1 [I-88]
Response: 8

Request: Indicate its recorded herbicidal effect index, Echinochloa crus-galli; the compound in question is COCCCn1c(=O)c(C(=O)C2=C(O)CCCC2=O)nn(C)c1=O [I-41]
Response: 9

Request: Indicate its recorded herbicidal effect index, Echinochloa crus-galli; the compound in question is CCN(c1ccccc1)n1c(=O)c(C(=O)O)nn(C)c1=O [V-368]
Response: 7

* * *

The following compounds are shown together with reported herbicidal effect index, Echinochloa crus-galli values.
Test system: Echinochloa crus-galli
Assay Overview: Herbicidal activity by field soil treatment (Test example 2)
Assay type: in vivo
Parameters: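 index 0 to 10 in 10% steps of herbicidal effect with 10 meaning complete death and 0 below 10%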
Test Conditions: 1000 g effective component per hectare, day 21 after the treatment
// return a plain number; no unit text

• COc1ccccc1-n1c(=O)c(C(=O)C2=C(O)CCCC2=O)nn(C)c1=O = 10
• Cn1nc(C(=O)C2=C(O)C(C)(C)CCC2=O)c(=O)n(-c2ccccc2)c1=O = 8
• CCn1c(=O)c(C(=O)C2=C(O)CCCC2=O)nn(-c2ccccn2)c1=O = 8
• COc1cc(OC)nc(-n2c(=O)c(C(=O)C3=C(O)CCCC3=O)nn(C)c2=O)n1 = 9
• Cn1nc(C(=O)C2=C(O)CCCC2=O)c(=O)n(-c2cccc(Cl)c2Cl)c1=O = 9
• COc1c(Cl)cc(-n2c(=O)c(C(=O)C3=C(O)CCCC3=O)nn(C)c2=O)cc1Cl = 9
• Cc1cc(I)ccc1-n1c(=O)c(C(=O)C2=C(O)CCCC2=O)nn(C)c1=O = 9
• CC(C)c1ccccc1-n1c(=O)c(C(=O)C2=C(O)CCCC2=O)nn(C)c1=O = 10

# ---- query compound ----
Request: Provide herbicidal effect index, Echinochloa crus-galli, recorded with Echinochloa crus-galli, of CC(CCn1c(=O)c(C(=O)C2=C(O)CCCC2=O)nn(C)c1=O)=C(F)F
Response: 10
